Source: ChEMBL document CHEMBL1799995

- Procedure Text: Negative chronotropic activity in neonatal Wistar rat Cardiomyocytes assessed as change in heart beating at 30 nM and at 37 degC after 5 mins
- Format: functional, Cardiac muscle cell
So I've got a bunch of compounds here, and I need their Activity values.
The answer consists of two parts: a number and, after it, its unit.

Query block: Would you kindly share the measured Activity for `CCCNC(=O)CCCC/C=C\CCCCCCCCCC(=O)O` ?
Result block: -4.7 bpm

Query block: Can you check `CC[C@H]1O[C@H]1C/C=C\CCCCCCCCCCCCC(=O)O` next?
Result block: 0.7 bpm

Query block: Can you check CCC1OC1CCCC/C=C\CCCCCCCCCC(=O)O (configuration not stated) next?
Result block: -18.3 bpm

Query block: Can you check `CCNC(=O)NCCCC/C=C\CCCCCCCCCC(=O)O` next?
Result block: -27 bpm

Query block: Can you check `CCCC(=O)NC/C=C\CCCCCCCCCCCCC(=O)O` next?
Result block: 12.8 bpm

Query block: Can you check CCC1OC1CCCCCCCCCC/C=C\CCCC(=O)O (configuration not stated) next?
Result block: -0.6 bpm

Query block: Can you check `CCCC(=O)N(CCCC/C=C\CCCCCCCCCC(=O)O)C(C)C` next?
Result block: 0.2 bpm

Query block: Can you check `CC[C@@H]1O[C@@H]1C/C=C\CCCCCCCCCCCCC(=O)O` next?
Result block: -21.1 bpm

Query block: Can you check `CC[C@H]1O[C@H]1CCCC/C=C\CCCCCCCCCC(=O)O` next?
Result block: 3.3 bpm

Query block: Can you check CCC1OC1C/C=C\C/C=C\C/C=C\C/C=C\CCCC(=O)O (configuration not stated) next?
Result block: -22.5 bpm

Query block: Can you check `CNC(=O)C(=O)NCCCC/C=C/CCCCCCCCCC(=O)O` next?
Result block: -4.7 bpm

Query block: Can you check CCC(O)C(O)C/C=C\C/C=C\C/C=C\C/C=C\CCCC(=O)O (configuration not stated) next?
Result block: 0 bpm
